test system: S. Newport CVM 40115 (cmy 2); assay type: cell-based, Salmonella
Where a SMILES comes first, the peptide text is derived from it. Bridges are numbered along the chain shown (N, C = ends). [ ]: non-standard residue; d: D form. The star is where a group is joined. Undecanoyl = CCCCCCCCCCC(=O)*; dOrn = NCCC[C@@H](N)C(=O)O
reportedMetric: MIC (µg/mL)
Kindly provide the numeric value in µg/mL only, without the unit symbol.

S. Newport CVM 40115 (cmy 2) / MIC / CCCCCCCCCCC(=O)N[C@H](CCCN)C(=O)N[C@H](C(=O)N[C@@H]1C(=O)N[C@H](CCCN)C(=O)N[C@@H](CO)C(=O)N[C@@H](Cc2ccc(O)cc2)C(=O)N[C@H](CCCCN)C(=O)N[C@H](CO)C(=O)N[C@@H]([C@@H](C)CC)C(=O)N2CCC[C@H]2C(=O)N[C@@H]([C@@H](C)CC)C(=O)N2CCC[C@H]2C(=O)N[C@@H]([C@@H](C)CC)C(=O)O[C@@H]1C)C(C)C [Compound C] (Undecanoyl-[dOrn]VT[dOrn]SY[dK][dS]IPIPI; ester 3-C; N-terminus assumed) : value?
16

###

Tested on: E. faecium ATCC 700221
Assay: microbe, parasite or virus in culture
Format: cell-based
Details: ATCC 700221
From the text: The same MIC assay as in Example 6 was used to determine the antimicrobial susceptibility of Compound A, L-form (FIG. 15), and several variants. One variant was Compound A, D-form, with D-Lysine at position 7. Compound B is a variant in the fatty acid chain, with a fatty acid chain composition of C15H29O, and having D-Lys at position 7. Compound C is a variant in the fatty acid chain with a fatty acid chain composition of C11H21O, and having D-Lys at position 7. […]
Where a SMILES comes first, the peptide text is derived from it. Bridges are numbered along the chain shown (N, C = ends). [ ]: non-standard residue; d: D form. The star is where a group is joined. Tridecanoyl = CCCCCCCCCCCCC(=O)*; dOrn = NCCC[C@@H](N)C(=O)O
reportedMetric: MIC (µg/mL)
Give the value in µg/mL but do not write µg/mL after it.

Which MIC value belongs to CCCCCCCCCCCCC(=O)N[C@H](CCCN)C(=O)N[C@H](C(=O)N[C@@H]1C(=O)N[C@H](CCCN)C(=O)N[C@@H](CO)C(=O)N[C@@H](Cc2ccc(O)cc2)C(=O)N[C@H](CCCCN)C(=O)N[C@H](CO)C(=O)N[C@@H]([C@@H](C)CC)C(=O)N2CCC[C@H]2C(=O)N[C@@H]([C@@H](C)CC)C(=O)N2CCC[C@H]2C(=O)N[C@@H]([C@@H](C)CC)C(=O)O[C@@H]1C)C(C)C [Compound A D-form] (Tridecanoyl-[dOrn]VT[dOrn]SY[dK][dS]IPIPI; ester 3-C) ?
8

###

test system: S. aureus 12; assay: microbe, parasite or virus in culture; type: cell-based, Staphylococcus aureus; settings: 12
Where a SMILES comes first, the peptide text is derived from it. Bridges are numbered along the chain shown (N, C = ends). [ ]: non-standard residue; d: D form. The star is where a group is joined. Tridecanoyl = CCCCCCCCCCCCC(=O)*; dOrn = NCCC[C@@H](N)C(=O)O
reportedMetric: MIC
Answer with the value and then the unit.

Which MIC is reported for this compound? CCCCCCCCCCCCC(=O)N[C@H](CCCN)C(=O)N[C@H](C(=O)N[C@@H]1C(=O)N[C@H](CCCN)C(=O)N[C@@H](CO)C(=O)N[C@@H](Cc2ccc(O)cc2)C(=O)N[C@H](CCCCN)C(=O)N[C@H](CO)C(=O)N[C@@H]([C@@H](C)CC)C(=O)N2CCC[C@H]2C(=O)N[C@@H]([C@@H](C)CC)C(=O)N2CCC[C@H]2C(=O)N[C@@H]([C@@H](C)CC)C(=O)O[C@@H]1C)C(C)C [Compound A D-form] (Tridecanoyl-[dOrn]VT[dOrn]SY[dK][dS]IPIPI; ester 3-C)
4 µg/mL

###

Recorded MIC, one value per entry.
test system: Serratia marcescens SAMN 04276915; type: cell-based; details: SAMN 04276915
Where a SMILES comes first, the peptide text is derived from it. Bridges are numbered along the chain shown (N, C = ends). [ ]: non-standard residue; d: D form. The star is where a group is joined. Pentadecanoyl = CCCCCCCCCCCCCCC(=O)*; Tridecanoyl = CCCCCCCCCCCCC(=O)*; Undecanoyl = CCCCCCCCCCC(=O)*; dOrn = NCCC[C@@H](N)C(=O)O

{"columns": ["compound", "result"],
 "data": [
  ["CCCCCCCCCCCCC(=O)N[C@H](CCCN)C(=O)N[C@H](C(=O)N[C@@H]1C(=O)N[C@H](CCCN)C(=O)N[C@@H](CO)C(=O)N[C@@H](Cc2ccc(O)cc2)C(=O)N[C@@H](CCCCN)C(=O)N[C@H](CO)C(=O)N[C@@H]([C@@H](C)CC)C(=O)N2CCC[C@H]2C(=O)N[C@@H]([C@@H](C)CC)C(=O)N2CCC[C@H]2C(=O)N[C@@H]([C@@H](C)CC)C(=O)O[C@@H]1C)C(C)C [Compound A L-form] (Tridecanoyl-[dOrn]VT[dOrn]SYK[dS]IPIPI; ester 3-C)", "≥128 µg/mL"],
  ["CCCCCCCCCCCCC(=O)N[C@H](CCCN)C(=O)N[C@H](C(=O)N[C@@H]1C(=O)N[C@H](CCCN)C(=O)N[C@@H](CO)C(=O)N[C@@H](Cc2ccccc2)C(=O)N[C@H](CCCCN)C(=O)N[C@H](CO)C(=O)N[C@@H]([C@@H](C)CC)C(=O)N2CCC[C@H]2C(=O)N[C@@H]([C@@H](C)CC)C(=O)N2CCC[C@H]2C(=O)N[C@@H]([C@@H](C)CC)C(=O)O[C@@H]1C)C(C)C [Variant D] (Tridecanoyl-[dOrn]VT[dOrn]SF[dK][dS]IPIPI; ester 3-C; N-terminus assumed)", "≥128 µg/mL"],
  ["CCCCCCCCCCCCCCC(=O)N[C@H](CCCN)C(=O)N[C@H](C(=O)N[C@@H]1C(=O)N[C@H](CCCN)C(=O)N[C@@H](CO)C(=O)N[C@@H](Cc2ccc(O)cc2)C(=O)N[C@H](CCCCN)C(=O)N[C@H](CO)C(=O)N[C@@H]([C@@H](C)CC)C(=O)N2CCC[C@H]2C(=O)N[C@@H]([C@@H](C)CC)C(=O)N2CCC[C@H]2C(=O)N[C@@H]([C@@H](C)CC)C(=O)O[C@@H]1C)C(C)C [Compound B] (Pentadecanoyl-[dOrn]VT[dOrn]SY[dK][dS]IPIPI; ester 3-C; N-terminus assumed)", "≥128 µg/mL"],
  ["CCCCCCCCCCCCC(=O)N[C@H](CCCN)C(=O)N[C@H](C(=O)N[C@@H]1C(=O)N[C@H](CCCN)C(=O)N[C@@H](CO)C(=O)N[C@@H](Cc2ccc(O)cc2)C(=O)N[C@H](CCCCN)C(=O)N[C@H](CO)C(=O)N[C@@H]([C@@H](C)CC)C(=O)N2CCC[C@H]2C(=O)N[C@@H]([C@@H](C)CC)C(=O)N2CCC[C@H]2C(=O)N[C@@H]([C@@H](C)CC)C(=O)O[C@@H]1C)C(C)C [Compound A D-form] (Tridecanoyl-[dOrn]VT[dOrn]SY[dK][dS]IPIPI; ester 3-C)", "64 µg/mL"]
]}

Next, consider the following compound.
Any idea what MIC was measured for CCCCCCCCCCC(=O)N[C@H](CCCN)C(=O)N[C@H](C(=O)N[C@@H]1C(=O)N[C@H](CCCN)C(=O)N[C@@H](CO)C(=O)N[C@@H](Cc2ccc(O)cc2)C(=O)N[C@H](CCCCN)C(=O)N[C@H](CO)C(=O)N[C@@H]([C@@H](C)CC)C(=O)N2CCC[C@H]2C(=O)N[C@@H]([C@@H](C)CC)C(=O)N2CCC[C@H]2C(=O)N[C@@H]([C@@H](C)CC)C(=O)O[C@@H]1C)C(C)C [Compound C] (Undecanoyl-[dOrn]VT[dOrn]SY[dK][dS]IPIPI; ester 3-C; N-terminus assumed) ?
≥128 µg/mL

###

test system: S. aureus 12; test: microbe, parasite or virus in culture; format: cell-based, Staphylococcus aureus; details: 12
Where a SMILES comes first, the peptide text is derived from it. Bridges are numbered along the chain shown (N, C = ends). [ ]: non-standard residue; d: D form. The star is where a group is joined. Pentadecanoyl = CCCCCCCCCCCCCCC(=O)*; Tridecanoyl = CCCCCCCCCCCCC(=O)*; Undecanoyl = CCCCCCCCCCC(=O)*; dOrn = NCCC[C@@H](N)C(=O)O
reportedMetric: MIC (µg/mL)
Numeric only. Scale: µg/mL

Example entries begin here.
{"columns": ["compound", "subjectOfTest", "numericReadout"],
 "data": [
  ["CCCCCCCCCCCCCCC(=O)N[C@H](CCCN)C(=O)N[C@H](C(=O)N[C@@H]1C(=O)N[C@H](CCCN)C(=O)N[C@@H](CO)C(=O)N[C@@H](Cc2ccc(O)cc2)C(=O)N[C@H](CCCCN)C(=O)N[C@H](CO)C(=O)N[C@@H]([C@@H](C)CC)C(=O)N2CCC[C@H]2C(=O)N[C@@H]([C@@H](C)CC)C(=O)N2CCC[C@H]2C(=O)N[C@@H]([C@@H](C)CC)C(=O)O[C@@H]1C)C(C)C [Compound B] (Pentadecanoyl-[dOrn]VT[dOrn]SY[dK][dS]IPIPI; ester 3-C; N-terminus assumed)", "S. aureus 12", 4],
  ["CCCCCCCCCCCCC(=O)N[C@H](CCCN)C(=O)N[C@H](C(=O)N[C@@H]1C(=O)N[C@H](CCCN)C(=O)N[C@@H](CO)C(=O)N[C@@H](Cc2ccccc2)C(=O)N[C@H](CCCCN)C(=O)N[C@H](CO)C(=O)N[C@@H]([C@@H](C)CC)C(=O)N2CCC[C@H]2C(=O)N[C@@H]([C@@H](C)CC)C(=O)N2CCC[C@H]2C(=O)N[C@@H]([C@@H](C)CC)C(=O)O[C@@H]1C)C(C)C [Variant D] (Tridecanoyl-[dOrn]VT[dOrn]SF[dK][dS]IPIPI; ester 3-C; N-terminus assumed)", "S. aureus 12", 8]
]}

Now let's try a different one.
For the compound shown here, CCCCCCCCCCC(=O)N[C@H](CCCN)C(=O)N[C@H](C(=O)N[C@@H]1C(=O)N[C@H](CCCN)C(=O)N[C@@H](CO)C(=O)N[C@@H](Cc2ccc(O)cc2)C(=O)N[C@H](CCCCN)C(=O)N[C@H](CO)C(=O)N[C@@H]([C@@H](C)CC)C(=O)N2CCC[C@H]2C(=O)N[C@@H]([C@@H](C)CC)C(=O)N2CCC[C@H]2C(=O)N[C@@H]([C@@H](C)CC)C(=O)O[C@@H]1C)C(C)C [Compound C] (Undecanoyl-[dOrn]VT[dOrn]SY[dK][dS]IPIPI; ester 3-C; N-terminus assumed) , give the reported MIC.
8
